- TARGET OF ASSAY: T1, CD32B (FcγRII-B) (UniProt P31994 43-217, limits assumed)
- T1 sequence (looked up): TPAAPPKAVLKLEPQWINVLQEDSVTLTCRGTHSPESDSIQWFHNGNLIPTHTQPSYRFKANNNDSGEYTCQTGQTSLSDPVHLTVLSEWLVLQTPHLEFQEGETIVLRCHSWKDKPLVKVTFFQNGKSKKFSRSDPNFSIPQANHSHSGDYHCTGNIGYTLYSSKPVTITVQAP
- ASSAY OVERVIEW: SPR (BIAcore), koff compared with wild-type Fc
OBSERVATION TYPE: WT koff/mutant koff (ratio)
# output: bare number, implied unit ratio

Example entries begin here.
Fc mutant 13: F243L R292P V305I (other, UniProt P01857-1 104-330, looked up, domain: Fc) DKTHTCPPCPAPELLGGPSVFLLPPKPKDTLMISRTPEVTCVVVDVSHEDPEVKFNWYVDGVEVHNAKTKPPEEQYNSTYRVVSILTVLHQDWLNGKEYKCKVSNKALPAPIEKTISKAKGQPREPQVYTLPPSRDELTKNQVSLTCLVKGFYPSDIAVEWESNGQPENNYKTTPPVLDSDGSFFLYSKLTVDKSRWQQGNVFSCSVMHEALHNHYTQKSLSLSPGK
0.1
Fc mutant 12: F243L R292P Y300L (other, UniProt P01857-1 104-330, looked up, domain: Fc) DKTHTCPPCPAPELLGGPSVFLLPPKPKDTLMISRTPEVTCVVVDVSHEDPEVKFNWYVDGVEVHNAKTKPPEEQYNSTLRVVSVLTVLHQDWLNGKEYKCKVSNKALPAPIEKTISKAKGQPREPQVYTLPPSRDELTKNQVSLTCLVKGFYPSDIAVEWESNGQPENNYKTTPPVLDSDGSFFLYSKLTVDKSRWQQGNVFSCSVMHEALHNHYTQKSLSLSPGK
0.6

Here is another binder to look at.
Ask: Return WT koff/mutant koff (reported value) for this binder: Fc mutant 15: R292P V305I P396L (other, UniProt P01857-1 104-330, looked up, domain: Fc) DKTHTCPPCPAPELLGGPSVFLFPPKPKDTLMISRTPEVTCVVVDVSHEDPEVKFNWYVDGVEVHNAKTKPPEEQYNSTYRVVSILTVLHQDWLNGKEYKCKVSNKALPAPIEKTISKAKGQPREPQVYTLPPSRDELTKNQVSLTCLVKGFYPSDIAVEWESNGQPENNYKTTPLVLDSDGSFFLYSKLTVDKSRWQQGNVFSCSVMHEALHNHYTQKSLSLSPGK
Reply: 0.9

The origin of these recorded values is patent US20240131162A1.
